- protocol text: chemical genetic growth profiling, strain panel (AID 1159580);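 further: tested at 20 µM; growth read once vehicle control cultures reached saturation at 30 °C; 1 = growth at the plate median or of vehicle wells; lower values mean less growth of the strain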
- settings: S. cerevisiae deletion strains, growth OD, locus YMR129W, stronger effect = lower value
Among all 5,500 compounds or so, about 2,000 (36%) were called active. Not shown: some 18% with an inconclusive outcome. This is one part of the list.
result type: normalized growth
Reply with just the number.

Example entries and their recorded answers appear below.
[
  {
    "compound": "CC(=O)Oc1cc(OC(C)=O)c2c(c1)O[C@H](c1ccc(OC(C)=O)c(OC(C)=O)c1)[C@@H](OC(C)=O)C2",
    "normalized growth": 1
  },
  {
    "compound": "O=C(O[C@@H]1Cc2c(O)cc(O)cc2O[C@@H]1c1ccc(O)c(O)c1)c1cc(O)c(O)c(O)c1",
    "normalized growth": 1.03
  },
  {
    "compound": "O=C(Oc1cc(O)cc2c1C[C@@H](OC(=O)c1cc(O)c(O)c(O)c1)[C@@H](c1cc(O)c(O)c(O)c1)O2)c1cc(O)c(O)c(O)c1",
    "normalized growth": 1.01
  },
  {
    "compound": "O=C(O[C@@H]1Cc2c(O)cc(O)cc2O[C@@H]1c1cc(O)c(O)c(O)c1)c1cc(O)c(O)c(O)c1",
    "normalized growth": 0.973
  },
  {
    "compound": "C/C=C(\\C)C(=O)O[C@H]1C[C@@H](OC(C)=O)[C@@]2(C(=O)OC)CO[C@@H]3C2[C@]12CO[C@](O)(C(=O)OC)[C@H]2[C@](C)(C12O[C@@]1(C)[C@H]1C[C@@H]2OC2OC=C[C@@]21O)[C@@H]3O (stereo partly specified)",
    "normalized growth": 0.991
  }
]

Exercise: Return normalized growth for the following compound: "O=C(Oc1cc(OC(=O)c2ccccc2)c2c(c1)O[C@H](c1ccc(OC(=O)c3ccccc3)c(OC(=O)c3ccccc3)c1)[C@@H](OC(=O)c1ccccc1)C2)c1ccccc1"
Solution: 0.997

----------
- protocol text: chemical genetic growth profiling, strain panel (AID 1159580);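 further: tested at 20 µM; growth read once vehicle control cultures reached saturation at 30 °C; 1 = growth at the plate median or of vehicle wells; lower values mean less growth of the strain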
- settings: S. cerevisiae deletion strains, growth OD, locus YAL021C, strain ccr4, stronger effect = lower value
Hit rate of the full screen: of about 5,500 compounds, about 2,000 (36%) were called active. About 18% were inconclusive and are not listed. This is one part of the list.
result type: normalized growth
Give a plain numeric answer without units written out.

# count of solved cases: 3
[
  {
    "molecule": "C[C@H]1COc2c(N3CCN(C)CC3)c(F)cc3c(=O)c(C(=O)O)cn1c23",
    "normalized growth": 1.02
  },
  {
    "molecule": "CN(C)CCN(Cc1cccs1)c1ccccn1",
    "normalized growth": 1
  },
  {
    "molecule": "COc1ccc2c(c1)OC/C(=C/c1ccc(OC)c(OC)c1)C2=O",
    "normalized growth": 0.997
  }
]

Exercise: In one line, give reported normalized growth of the entry "CCOC(=O)n1ccn(C)c1=S" .
Solution: 0.987

Exercise: Please give the documented normalized growth of c1ccc2c(c1)CCCC2C1=NCCN1 (configuration not stated)
Solution: 1.02

----------
- protocol text: chemical genetic growth profiling, strain panel (AID 1159580);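 further: tested at 20 µM; growth read once vehicle control cultures reached saturation at 30 °C; 1 = growth at the plate median or of vehicle wells; lower values mean less growth of the strain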
- settings: S. cerevisiae deletion strains, growth OD, locus YBR023C, strain chs3, stronger effect = lower value
Among all 5,500 compounds or so, about 2,000 (36%) were called active. Roughly 18% stayed inconclusive and do not appear here. The list shows a part of the results.
result type: normalized growth
Reply: number alone, nothing else.

Example entries and their recorded answers appear below.
[
  {
    "compound": "C=CCCCCCCCCCCCc1ccco1",
    "recorded number": 0.905
  },
  {
    "compound": "COc1ccc(C2CNC(=O)C2)cc1OC1CCCC1 (centres undefined)",
    "recorded number": 1.01
  },
  {
    "compound": "CC[C@@H]1C=C/C=C/C[C@H](C)[C@@H](O)[C@](C)(O)C(=O)[C@H](C)[C@@H](O)[C@H](C)C(=O)[C@H](C)[C@@H](O)[C@H](C)/C=C/C(=O)O[C@H]2[C@@H](C)[C@@H](CC1)O[C@@]1(CC[C@@H](C)[C@@H](C[C@H](C)O)O1)[C@@H]2C",
    "recorded number": 1
  },
  {
    "compound": "C[n+]1c2cc(N)ccc2cc2ccc(N)cc21",
    "recorded number": 0.666
  },
  {
    "compound": "CO/N=C1/CN(c2nc3c(cc2F)c(=O)c(C(=O)O)cn3C2CC2)CC1CN (centres undefined)",
    "recorded number": 1.02
  },
  {
    "compound": "CN(C)CCOC(c1ccc(Cl)cc1)c1ccccn1 (centres undefined)",
    "recorded number": 1.03
  },
  {
    "compound": "CN(C)CCCC1(c2ccc(F)cc2)OCc2cc(C#N)ccc21 (centres undefined)",
    "recorded number": 0.987
  },
  {
    "compound": "CC[C@@]1(O)C[C@H](O)c2c(cc3c(c2O)C(=O)c2c(O)ccc(O)c2C3=O)[C@H]1C(=O)OC",
    "recorded number": 0.924
  },
  {
    "compound": "COc1ccc2c(c1)OC1(O)COc3cc(OC)c(OC)cc3C1=C2 (centres undefined)",
    "recorded number": 0.979
  },
  {
    "compound": "CN1C2CCC1CC(OC(c1ccccc1)c1ccccc1N)C2 (centres undefined)",
    "recorded number": 0.989
  }
]

Exercise: Supply recorded normalized growth for "O=c1c(-c2ccc(O)cc2)coc2cc(O)ccc12" here.
Solution: 0.978

Exercise: Look up and state reported normalized growth for "O=C(O)c1cc2cc(F)ccc2[nH]1"
Solution: 0.996

Exercise: Report measured normalized growth; entry is CC[C@]1(O)CC2CN(CCc3c([nH]c4ccccc34)[C@@](C(=O)OC)(c3cc4c(cc3OC)N(C)[C@H]3[C@@](O)(C(=O)OC)[C@H](OC(C)=O)[C@]5(CC)C=CCN6CC[C@]43[C@@H]65)C2)C1 (some centres undefined)
Solution: 0.984

Exercise: Give a short answer stating reported normalized growth for C=C1C2CC[C@@]3(C)[C@H](c4ccoc4)OC(=O)C[C@]13O[C@H]1CC(=O)C(C)(C)[C@H](C(OC(C)=O)C(=O)OC)[C@@]21C (some centres undefined) .
Solution: 0.998

Exercise: Answer with the recorded normalized growth for the compound listed here: "CC(=O)Oc1cc(OC(C)=O)c2c(c1)O[C@H](c1ccc(OC(C)=O)c(OC(C)=O)c1)[C@@H](OC(C)=O)C2"
Solution: 1

Exercise: For "COC(=O)/C=C/C(C)=C/C=C/C(C)=C/C=C/C=C(C)/C=C/C=C(C)/C=C/C(=O)O" , write its normalized growth.
Solution: 1.03

Exercise: Write down normalized growth measured for item "COc1ccc(CN(CCN(C)C)c2ccccn2)cc1"
Solution: 1.03

Exercise: Consider the compound "O=C(O[C@@H]1Cc2c(O)cc(O)cc2O[C@@H]1c1cc(O)c(O)c(O)c1)c1cc(O)c(O)c(O)c1" and give its recorded normalized growth.
Solution: 0.746

Exercise: # return recorded normalized growth for entry CC[C@@H](C(=O)C(C)[C@@H](O)[C@H](C)CCc1ccc(C)c(O)c1C(=O)O)C1OC(CC)(C2CC[C@](O)(CC)[C@H](C)O2)C[C@@H]1C (some centres undefined)
Solution: 1.06

----------
- protocol text: chemical genetic growth profiling, strain panel (AID 1159580);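 further: tested at 20 µM; growth read once vehicle control cultures reached saturation at 30 °C; 1 = growth at the plate median or of vehicle wells; lower values mean less growth of the strain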
- settings: S. cerevisiae deletion strains, growth OD, locus YNL233W, strain BNI4, stronger effect = lower value
The campaign covered roughly 5,500 compounds. About 2,000 (36%) were called active. About 18% were inconclusive and are not listed. The list shows a part of the results.
result type: normalized growth
No unit in the answer, please; the number alone is enough.

Exercise: Retrieve normalized growth measured for CN1C2CCC1CC(OC(c1ccccc1)c1ccccc1)C2 (stereo not drawn) and print it.
Solution: 0.766

Exercise: Provide one value: measured normalized growth of O=C(OCC(O)CO)c1ccccc1Nc1ccnc2cc(Cl)ccc12 (stereo not drawn)
Solution: 0.974

Exercise: State its normalized growth: C=C[C@@](C)(O)CCC1C(=C)C[C@H](OC(C)=O)C2C(C)(C)CCCC12C (stereo partly drawn)
Solution: 1.02

Exercise: Give a short answer stating reported normalized growth for "NS(=O)(=O)c1cc2c(cc1Cl)NC=NS2(=O)=O" .
Solution: 1.02

Exercise: Entry COc1ccc(C(CN(C)C)C2(O)CCCCC2)cc1 (stereo not drawn) needs its normalized growth filled in; supply it.
Solution: 1.02

Exercise: Give the measured normalized growth for "COc1ccc(CN(CCN(C)C)c2ccccn2)cc1"
Solution: 1

Exercise: Provide only the value of recorded normalized growth for "COc1ccc2c(c1)OC/C(=C/c1ccc(OC)c(OC)c1)C2=O"
Solution: 0.873

Exercise: Find the measured normalized growth of "O=c1cccc2ccc(O)c(O)c2c1O" and report it.
Solution: 0.419

Exercise: Provide one value: measured normalized growth of COc1ccc2c(c1)OC1(O)COc3cc(OC)c(OC)cc3C1=C2 (stereo not drawn)
Solution: 0.971

Exercise: Identify normalized growth associated with the compound "O=C(Oc1cc(O)cc2c1C[C@@H](OC(=O)c1cc(O)c(O)c(O)c1)[C@@H](c1cc(O)c(O)c(O)c1)O2)c1cc(O)c(O)c(O)c1"
Solution: 0.455
